System: purple nutsedge
test_details: Test B pre/postemergence purple nutsedge
Assay type: in vivo, Cyperus rotundus
cond: Preemergence, Rate 500 g/ha; scale of 0 to 10 where 0 is no effect and 10 is complete control
Kindly supply the reported Nutsedge plant response rating values for the records listed here.
// response body must contain only the number

GET /values?readout=Nutsedge plant response rating&item= CC(C)N(C(=O)n1oc(=O)n(C2(C)CC2)c1=O)c1ccc(F)cc1F 2

GET /values?readout=Nutsedge plant response rating&item= CC(C)N(C(=O)n1oc(=O)n(N2C(C)CCCC2C)c1=O)c1ccc(F)cc1F (stereo not drawn) 0

GET /values?readout=Nutsedge plant response rating&item= CC(C)N(C(=O)n1oc(=O)n(Cc2nnsc2Cl)c1=O)c1ccc(F)cc1F 0

GET /values?readout=Nutsedge plant response rating&item= CC(C)N(C(=O)n1oc(=O)n(CC2=NCCCO2)c1=O)c1ccccc1 0

GET /values?readout=Nutsedge plant response rating&item= CC(C)N(C(=O)n1oc(=O)n(CC2CCOC2)c1=O)c1ccc(F)cc1 (stereo not drawn) 0

GET /values?readout=Nutsedge plant response rating&item= COCCOCn1c(=O)on(C(=O)N(c2ccc(Cl)cc2)C(C)C)c1=O 0

GET /values?readout=Nutsedge plant response rating&item= CCc1cccc(CC)c1-n1c(=O)on(C(=O)N(c2ccc(F)cc2)C(C)C)c1=O 0

GET /values?readout=Nutsedge plant response rating&item= CC(C)N(C(=O)n1oc(=O)n(CC2CCCO2)c1=O)c1ccc(F)cc1 (stereo not drawn) 0

GET /values?readout=Nutsedge plant response rating&item= CCC(CC)n1c(=O)on(C(=O)N(c2ccc(F)cc2)C(C)C)c1=O 0

GET /values?readout=Nutsedge plant response rating&item= CC(=O)OCCCCn1c(=O)on(C(=O)N(c2ccc(Cl)cc2)C(C)C)c1=O 0

GET /values?readout=Nutsedge plant response rating&item= CC(C)N(C(=O)n1oc(=O)n(C2CCC2)c1=O)c1ccc(F)cc1F 9

GET /values?readout=Nutsedge plant response rating&item= CC(=O)OCCCCn1c(=O)on(C(=O)N(c2ccc(F)cc2F)C(C)C)c1=O 10

GET /values?readout=Nutsedge plant response rating&item= Cc1cccc(C(C)(C)C)c1-n1c(=O)on(C(=O)N(c2ccccc2)C(C)C)c1=O 0

GET /values?readout=Nutsedge plant response rating&item= CC(C)N(C(=O)n1oc(=O)n(C2CC3CCC2C3)c1=O)c1ccc(F)cc1 (stereo not drawn) 0

GET /values?readout=Nutsedge plant response rating&item= CCC(=O)Cn1c(=O)on(C(=O)N(c2ccc(F)cc2F)C(C)C)c1=O 4
